- test.target: RBM7 (UniProt Q9Y580)
- Sequence: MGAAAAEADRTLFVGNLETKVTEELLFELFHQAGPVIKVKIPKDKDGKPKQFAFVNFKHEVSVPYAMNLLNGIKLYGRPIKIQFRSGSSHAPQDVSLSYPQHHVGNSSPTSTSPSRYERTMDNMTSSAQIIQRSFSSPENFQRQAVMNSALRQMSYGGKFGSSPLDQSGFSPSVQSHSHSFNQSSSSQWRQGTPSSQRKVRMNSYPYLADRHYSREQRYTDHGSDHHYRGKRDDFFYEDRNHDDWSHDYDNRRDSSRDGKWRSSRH
- assay.info: Kd (EC50 corrected by depletion factor)
measure: pKd
A value of pKd is the negative decimal logarithm of a concentration given in moles per litre.

- AAUAAA: 6.81

Alright, here's another sequence for you.
According to the records, this sequence `UAUUUAU` displays pKd of 7.09

Sourced from the supplement of paper PMC6379048
